B1: Osa-1-4 twister ribozyme (parent)
chain: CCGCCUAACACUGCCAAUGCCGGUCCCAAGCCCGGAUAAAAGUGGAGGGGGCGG

- Variants of: B1
- protocol_text: self-cleavage, relative activity (ratio to wild type); higher = more cleavage; co-transcriptional
property_name: self-cleavage
Give a plain numeric answer without units written out.

Incoming: Given the variant CCGCCUAACACUGCCAAUGCCGGUCCCAAGCCCAGAUAAAAGUGGAUGGGGCGG [G34A G47U] , write its reported self-cleavage.
Outgoing: 0.1

Incoming: Given the variant CCGCCUAACACUGCCAAUGCCGGUCCCAAGCCCGGAUAAAUGUGGAGGGGGUGG [A41U C52U] , write its reported self-cleavage.
Outgoing: 1.04

Incoming: Given the variant CCGCCUAACACUGCCAAUGCCGGUCCCAAGCCCUGAUCAAAGUGGAGGGGGCGG [A38C G34U] , write its reported self-cleavage.
Outgoing: 0.67

Incoming: Given the variant CCGCCUAACACUGCCAAUGACGGUCCCAAGCCCGGAUAAAAGUGGAGGGAGCGG [C20A G50A] , write its reported self-cleavage.
Outgoing: 0.8

Incoming: Given the variant CCGCCUAACACUGCCAAUGCCGGUCCCGAGCCCGGAUAAAUGUGGAGGGGGCGG [A28G A41U] , write its reported self-cleavage.
Outgoing: 0.23

Incoming: Given the variant CCGCCUAACACUUCCAAGGCCGGUCCCAAGCCCGGAUAAAAGUGGAGGGGGCGG [G13U U18G] , write its reported self-cleavage.
Outgoing: 0.05

Incoming: Given the variant CCGCCUGACACUGCCAAUGCCGGUCCCAAGCCCGGAUAAAAGUGGACGGGGCGG [A7G G47C] , write its reported self-cleavage.
Outgoing: 0.05

Incoming: Given the variant CCGCCUACCACUGCCAAUGCCGGUCCCAAGCCCGGAUAAAAGUGGAGGGGGGGG [A8C C52G] , write its reported self-cleavage.
Outgoing: 0.15

Incoming: Given the variant CCGCCUAACUCUUCCAAUGCCGGUCCCAAGCCCGGAUAAAAGUGGAGGGGGCGG [A10U G13U] , write its reported self-cleavage.
Outgoing: 0

Incoming: Given the variant CCGCCUAACACUGCCAAUGCCUGUCCCAAGCCCGGAUAAAAGUGGAGGGGGCGA [G22U G54A] , write its reported self-cleavage.
Outgoing: 0.58

Incoming: Given the variant CCGCCUCACACUGCCAAUGCCGGUCCCAAGCCCGGAUAAAAGUGGAGUGGGCGG [A7C G48U] , write its reported self-cleavage.
Outgoing: 0.01
